Sourced from patent US20140363438A1

MEASUREMENT TARGET: T1, Recombinant human NRG1-α EGF domain (R&D Systems, cat#296-HR/CF) (human, UniProt Q02297 177-241)
T1 construct: also called NRG1-alpha; HRG1α
T1 sequence: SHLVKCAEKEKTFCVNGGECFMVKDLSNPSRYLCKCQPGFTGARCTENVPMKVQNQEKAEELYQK
EXPERIMENTAL DETAILS: SPR (BIAcore T100), IgG captured by anti-human Fc, NRG1α injected; table under the head '250 nM NRG1-alpha'
For each record, write down the corresponding Kd.
Numbers only, in nM.

Some binders with recorded Kd:
anti-NRG1 antibody 538.24.17 (antibody, human IgG1, V domains shown, also called YW538.24.17) VH: EVQLVESGGGLVQPGGSLRLSCAASGFTFSGTWIHWVRQAPGKGLEWVAAITPADGSTNYADSVKGRFTISADTSKNTAYLQMNSLRAEDTAVYYCATYMFAMDYWGQGTLVTVSS VL: DIQMTQSPSSLSASVGDRVTITCRASQDVSTAVAWYQQKPGKAPKLLIYSASFLYSGVPSRFSGSGSGTDFTLTISSLQPEDFATYYCQQSYWMPPTFGQGTKVEIKR
5.18
anti-NRG1 antibody 538.24.36 (antibody, human IgG1, V domains shown, also called YW538.24.36) VH: EVQLVESGGGLVQPGGSLRLSCAASGFTFSGTWIHWVRQAPGKGLEWVAAITPADGSTNYADSVKGRFTISADTSKNTAYLQMNSLRAEDTAVYYCATYMFAMDYWGQGTLVTVSS VL: DIQMTQSPSSLSASVGDRVTITCRASQNVDRSLAWYQQKPGKAPKLLIYAASSLESGVPSRFSGSGSGTDFTLTISSLQPEDFATYYCQQHYTLPFTFGQGTKVEIKR
13.2

Would you kindly look at the next entry?
Asked: Complete the entry with Kd for anti-NRG1 antibody 538.24.71 (antibody, human IgG1, kappa, V domains shown, also called YW538.24.71) VH: EVQLVESGGGLVQPGGSLRLSCAASGFTFSGTWIHWVRQAPGKGLEWVAAITPADGSTNYADSVKGRFTISADTSKNTAYLQMNSLRAEDTAVYYCATYMFAMDYWGQGTLVTVSS VL: DIQMTQSPSSLSASVGDRVTITCRASQDVSISLAWYQQKPGKAPKLLIYGASNLESGVPSRFSGSGSGTDFTLTISSLQPEDFATYYCQQHYTLPFTFGQGTKVEIKR
Given back: 2
